Catalogue of molecules with associated pIC50
target: p53-MDM4 interaction (human MDM4 protein, amino acids 2-185) (Homo sapiens); construct: human MDM4 protein (amino acids 2-185); assay: p53-MDM4 Assay 1: TR-FRET inhibition of p53-MDM4 interaction; details: 2.5 nM MDM4-biotinylated, 10 nM Cy5-p53 peptide
Sequence (O15151 2-185): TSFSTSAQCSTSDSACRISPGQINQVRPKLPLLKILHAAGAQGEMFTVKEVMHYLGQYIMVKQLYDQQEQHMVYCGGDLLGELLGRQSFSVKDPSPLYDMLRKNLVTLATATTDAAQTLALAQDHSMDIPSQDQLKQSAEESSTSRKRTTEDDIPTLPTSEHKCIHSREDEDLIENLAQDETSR
pIC50: −log10 of the molar value.
property label: pIC50

>>> observed("COc1ccccc1-n1nc2c(c1C(C)C)C(c1ccc(Cl)cc1)N(c1cc(Cl)ccc1OCCN(C)C)C(=O)N2 (stereo not drawn)")
4.94
>>> observed("Cc1cc(Cl)ccc1C1c2c(nn(Cc3ccccn3)c2C(C)C)NC(=O)N1c1cccc(Cl)c1F (stereo not drawn)")
5.09
>>> observed("COCCn1cc(N2C(=O)Nc3nn(-c4ccccc4OC)c(C(C)C)c3C2c2ccc(Cl)cc2)cc(Cl)c1=O (stereo not drawn)")
5.07
